- experimental system: Sodium-dependent serotonin transporter (Homo sapiens)
- assay remarks: Inhibition of [3H]serotonin uptake at human SERT expressed in HEK293 cells at 10 uM after 10 min by scintillation counting
recorded endpoint: inhibition (%)

Use these answered entries as a reference point.
compound | uom | inhibition
O=[N+]([O-])c1ccc(C(O)CCN2CC=C(Cc3ccccc3)CC2)cc1 (racemic) | % | 65
C[C@H]([C@@H](O)c1cccc(F)c1)N1CC=C(Cc2ccccc2)CC1 (racemic) | % | 61
OC(CCN1CC=C(Cc2ccccc2)CC1)c1ccc(F)cc1F (racemic) | % | 66
Cc1ccc(C(O)CCN2CC=C(Cc3ccccc3)CC2)cc1 (racemic) | % | 62
OC(CCN1CCC(O)(Cc2ccccc2)CC1)c1csc2ccccc12 (racemic) | % | 27

(A) C[C@@H]([C@@H](O)c1cccc(F)c1)N1CC=C(Cc2ccccc2)CC1 (racemic)
(B) C[C@H]([C@@H](O)c1ccc(Cl)c(Cl)c1)N1CC=C(Cc2ccccc2)CC1 (racemic)
-- ask Problem: Given the entries A and B , determine which has the lower reported inhibition. Give the chosen item's label as your response.
-- reply B
(B: 38%, A: 63%)

###

- experimental system: Sodium-dependent dopamine transporter (Homo sapiens)
- assay remarks: Inhibition of [3H]dopamine uptake at human DAT expressed in HEK293 cells after 10 mins by scintillation counting
pIC50: −log10 of the molar value.
recorded endpoint: pIC50

compound | pIC50
OC(CCN1CCC(O)(Cc2ccccc2)CC1)c1ccc(Cl)c(Cl)c1 (racemic) | 6.25
OC(CCN1CC=C(Cc2ccccc2)CC1)c1csc2ccccc12 (racemic) | 6.25
OC(CCN1CC=C(Cc2ccccc2)CC1)c1cc2ccccc2s1 (racemic) | 6.31

(P) COc1ccc2cc(C(O)CCN3CC=C(Cc4ccccc4)CC3)ccc2c1Cl (racemic)
(Q) OC(CCN1CC=C(Cc2ccccc2)CC1)c1ccc(Cl)c(Cl)c1 (racemic)
-- ask # compare pIC50 for P vs Q ; return the one with the smaller value Kindly give the label for the entry you pick.
-- reply Q
(Q: 6.16, P: 6.46)

###

- experimental system: 5-hydroxytryptamine receptor 2B (Homo sapiens)
- assay remarks: Displacement of [3H]Mesulergine from human recombinant 5HT2B receptor expressed in CHO cells at 10 uM after 30 mins by liquid scintillation counting
- Format: cell-based
recorded endpoint: inhibition (%)

Known results for molecules:
molecule | experimental system | test result
OC(CCN1CC=C(Cc2ccccc2)CC1)c1csc2ccccc12 (racemic) | 5-hydroxytryptamine receptor 2B (Homo sapiens) | 14.5
OC(CCN1CCC(O)(Cc2ccccc2)CC1)c1ccc(Cl)c(Cl)c1 (racemic) | 5-hydroxytryptamine receptor 2B (Homo sapiens) | 4.9

(I) OC(CCN1CC=C(Cc2ccccc2)CC1)c1cc2ccccc2s1 (racemic)
(II) OC(CCN1CC=C(Cc2ccccc2)CC1)c1ccc(Cl)c(Cl)c1 (racemic)
-- ask Among I and II , which shows a numerically higher inhibition result? Please indicate the selected item by its label.
-- reply II
(II: 33.5%, I: 6.1%)

###

- experimental system: D(1A) dopamine receptor (Homo sapiens)
- Sequence (P21728 whole entry): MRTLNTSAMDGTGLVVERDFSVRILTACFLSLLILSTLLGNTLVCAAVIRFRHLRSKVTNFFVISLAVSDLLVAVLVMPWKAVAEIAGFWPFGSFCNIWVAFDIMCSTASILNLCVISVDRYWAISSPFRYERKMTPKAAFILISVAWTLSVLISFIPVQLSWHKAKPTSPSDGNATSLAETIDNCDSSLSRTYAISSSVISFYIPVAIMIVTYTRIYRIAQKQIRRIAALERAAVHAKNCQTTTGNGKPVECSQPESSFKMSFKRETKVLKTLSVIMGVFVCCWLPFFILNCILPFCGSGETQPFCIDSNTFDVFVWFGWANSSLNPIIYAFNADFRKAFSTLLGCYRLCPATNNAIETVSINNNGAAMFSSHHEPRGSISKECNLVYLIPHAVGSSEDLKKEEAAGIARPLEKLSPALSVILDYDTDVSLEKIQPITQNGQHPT
- assay remarks: Displacement of [3H]SCH23390 from dopamine D1 receptor
recorded endpoint: IC50 (µM)
Give just the number in µM; leave the unit off.

-- ask Requested read-out IC50, target or system D(1A) dopamine receptor (Homo sapiens), entry OC(CCN1CC=C(Cc2ccccc2)CC1)c1cc2ccccc2s1 (racemic)
-- reply 9.65

###

- experimental system: D(2) dopamine receptor (Homo sapiens)
- assay remarks: Displacement of [3H]Methylspiperone from dopamine D2 receptor at 10 uM
recorded endpoint: inhibition (%)

compound | uom | test result
OC(CCN1CC=C(Cc2ccccc2)CC1)c1ccc(Cl)c(Cl)c1 (racemic) | % | 31.4
OC(CCN1CCC(O)(Cc2ccccc2)CC1)c1ccc(Cl)c(Cl)c1 (racemic) | % | 19.2
OC(CCN1CC=C(Cc2ccccc2)CC1)c1cc2ccccc2s1 (racemic) | % | 10.8

(1) OC(CCN1CC=C(Cc2ccccc2)CC1)c1csc2ccccc12 (racemic)
(2) COc1ccc2cc(C(O)CCN3CC=C(Cc4ccccc4)CC3)ccc2c1Cl (racemic)
-- ask Kindly compare 1 with 2 and tell me which has the lower inhibition figure. Let me know the label of the one you choose.
-- reply 2

###

- experimental system: Sodium-dependent serotonin transporter (Homo sapiens, UniProt P31645)
- Sequence (P31645 whole entry, looked up): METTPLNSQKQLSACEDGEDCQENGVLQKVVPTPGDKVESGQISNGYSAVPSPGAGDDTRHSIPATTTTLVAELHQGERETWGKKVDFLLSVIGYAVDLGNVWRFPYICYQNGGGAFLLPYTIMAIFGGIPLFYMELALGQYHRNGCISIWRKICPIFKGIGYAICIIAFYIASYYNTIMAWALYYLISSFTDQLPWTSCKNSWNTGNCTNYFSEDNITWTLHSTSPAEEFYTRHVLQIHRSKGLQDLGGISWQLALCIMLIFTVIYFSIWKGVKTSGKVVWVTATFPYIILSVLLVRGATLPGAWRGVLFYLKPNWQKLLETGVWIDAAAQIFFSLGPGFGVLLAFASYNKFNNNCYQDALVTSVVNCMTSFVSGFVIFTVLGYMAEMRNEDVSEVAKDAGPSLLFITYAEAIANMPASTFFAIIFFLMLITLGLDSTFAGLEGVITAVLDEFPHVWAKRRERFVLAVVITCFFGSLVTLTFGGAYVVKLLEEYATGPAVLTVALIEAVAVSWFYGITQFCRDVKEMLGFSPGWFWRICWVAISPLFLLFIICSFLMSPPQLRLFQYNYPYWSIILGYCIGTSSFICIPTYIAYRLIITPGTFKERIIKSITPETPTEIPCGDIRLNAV
- assay remarks: Inhibition of [3H]serotonin uptake at human SERT expressed in HEK293 cells at 10 uM after 10 min by scintillation counting
recorded endpoint: inhibition (%)

Example entries and their recorded answers appear below.
compound | experimental system | uom | inhibition
COc1ccc(C(O)CCN2CC=C(Cc3ccccc3)CC2)cc1OC (racemic) | Sodium-dependent serotonin transporter (Homo sapiens, UniProt P31645) | % | 74
COc1ccc2cc([C@H](O)[C@@H](C)N3CCC(O)(Cc4ccccc4)CC3)ccc2c1Cl (racemic) | Sodium-dependent serotonin transporter (Homo sapiens, UniProt P31645) | % | 80
OC(CCN1CC=C(Cc2ccccc2)CC1)c1cccs1 (racemic) | Sodium-dependent serotonin transporter (Homo sapiens, UniProt P31645) | % | 78

(P) OC(CCN1CC=C(Cc2ccccc2)CC1)c1ccc(Cl)cc1 (racemic)
(Q) COc1ccc([C@H](O)[C@H](C)N2CC=C(Cc3ccccc3)CC2)cc1 (racemic)
(R) C[C@@H]([C@@H](O)c1csc2ccccc12)N1CC=C(Cc2ccccc2)CC1 (racemic)
-- ask Please put the entries in order of rising inhibition. Please, when replying, give the labels in the order that was requested.
-- reply R, P, Q
(R: 33%, P: 56%, Q: 80%)

###

- experimental system: Beta-2 adrenergic receptor (Homo sapiens) (UniProt P07550)
- Sequence (P07550 whole entry, looked up): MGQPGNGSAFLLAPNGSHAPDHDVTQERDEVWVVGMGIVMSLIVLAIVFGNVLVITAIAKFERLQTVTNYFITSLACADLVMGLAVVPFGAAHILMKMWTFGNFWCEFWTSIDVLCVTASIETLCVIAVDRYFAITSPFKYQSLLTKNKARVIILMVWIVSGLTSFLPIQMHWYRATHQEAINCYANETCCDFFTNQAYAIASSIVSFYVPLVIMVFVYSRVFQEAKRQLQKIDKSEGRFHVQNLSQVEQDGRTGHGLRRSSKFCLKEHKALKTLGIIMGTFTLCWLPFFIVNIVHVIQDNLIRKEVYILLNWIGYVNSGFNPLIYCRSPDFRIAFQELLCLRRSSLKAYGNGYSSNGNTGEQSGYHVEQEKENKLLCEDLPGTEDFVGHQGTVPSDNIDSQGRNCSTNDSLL
- assay remarks: Displacement of [3H](-)CGP12177 beta2 adrenergic receptor at 10 uM
recorded endpoint: inhibition (%)

# annotated cases, reported inhibition shown
compound | uom | test result
OC(CCN1CC=C(Cc2ccccc2)CC1)c1cc2ccccc2s1 (racemic) | % | 16.7
COc1ccc2cc(C(O)CCN3CC=C(Cc4ccccc4)CC3)ccc2c1Cl (racemic) | % | 28.5
OC(CCN1CC=C(Cc2ccccc2)CC1)c1csc2ccccc12 (racemic) | % | 49.8

(P) OC(CCN1CCC(O)(Cc2ccccc2)CC1)c1ccc(Cl)c(Cl)c1 (racemic)
(Q) OC(CCN1CC=C(Cc2ccccc2)CC1)c1ccc(Cl)c(Cl)c1 (racemic)
-- ask Look at P and Q . Which one has the lower recorded inhibition number? Lab log: write the label of the selected item as the result.
-- reply P
(P: 14.7%, Q: 62.3%)

###

- experimental system: 5-hydroxytryptamine receptor 2A (Homo sapiens) (UniProt P28223)
- Sequence (P28223 whole entry): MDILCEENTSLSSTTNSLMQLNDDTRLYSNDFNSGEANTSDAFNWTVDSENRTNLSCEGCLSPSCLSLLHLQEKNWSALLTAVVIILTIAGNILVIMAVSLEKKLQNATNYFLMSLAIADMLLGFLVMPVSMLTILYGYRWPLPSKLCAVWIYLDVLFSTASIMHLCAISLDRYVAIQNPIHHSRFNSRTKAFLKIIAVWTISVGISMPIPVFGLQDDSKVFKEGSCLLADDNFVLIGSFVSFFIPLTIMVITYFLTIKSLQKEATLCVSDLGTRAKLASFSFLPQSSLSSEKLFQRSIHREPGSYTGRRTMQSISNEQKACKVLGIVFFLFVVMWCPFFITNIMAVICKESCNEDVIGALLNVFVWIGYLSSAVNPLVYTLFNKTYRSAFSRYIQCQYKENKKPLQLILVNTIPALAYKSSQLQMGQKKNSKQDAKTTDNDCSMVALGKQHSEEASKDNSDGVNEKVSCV
- assay remarks: Displacement of [3H]Ketanserin from human recombinant 5HT2A receptor expressed in CHO cells at 10 uM after 15 mins by liquid scintillation counting
- Format: cell-based
recorded endpoint: inhibition (%)

compound | experimental system | inhibition, %
OC(CCN1CC=C(Cc2ccccc2)CC1)c1csc2ccccc12 (racemic) | 5-hydroxytryptamine receptor 2A (Homo sapiens) (UniProt P28223) | 42.6

(A) OC(CCN1CCC(O)(Cc2ccccc2)CC1)c1ccc(Cl)c(Cl)c1 (racemic)
(B) OC(CCN1CC=C(Cc2ccccc2)CC1)c1ccc(Cl)c(Cl)c1 (racemic)
(C) OC(CCN1CC=C(Cc2ccccc2)CC1)c1cc2ccccc2s1 (racemic)
(D) COc1ccc2cc(C(O)CCN3CC=C(Cc4ccccc4)CC3)ccc2c1Cl (racemic)
-- ask Please list these compounds in decreasing order of inhibition. Submit the labels in the order that the ranking request calls for.
-- reply C, D, B, A
(C: 31.5%, D: 15.6%, B: 4.8%, A: 0.9%)

###

- experimental system: Sodium-dependent dopamine transporter (Homo sapiens, UniProt Q01959)
- Sequence (Q01959 whole entry): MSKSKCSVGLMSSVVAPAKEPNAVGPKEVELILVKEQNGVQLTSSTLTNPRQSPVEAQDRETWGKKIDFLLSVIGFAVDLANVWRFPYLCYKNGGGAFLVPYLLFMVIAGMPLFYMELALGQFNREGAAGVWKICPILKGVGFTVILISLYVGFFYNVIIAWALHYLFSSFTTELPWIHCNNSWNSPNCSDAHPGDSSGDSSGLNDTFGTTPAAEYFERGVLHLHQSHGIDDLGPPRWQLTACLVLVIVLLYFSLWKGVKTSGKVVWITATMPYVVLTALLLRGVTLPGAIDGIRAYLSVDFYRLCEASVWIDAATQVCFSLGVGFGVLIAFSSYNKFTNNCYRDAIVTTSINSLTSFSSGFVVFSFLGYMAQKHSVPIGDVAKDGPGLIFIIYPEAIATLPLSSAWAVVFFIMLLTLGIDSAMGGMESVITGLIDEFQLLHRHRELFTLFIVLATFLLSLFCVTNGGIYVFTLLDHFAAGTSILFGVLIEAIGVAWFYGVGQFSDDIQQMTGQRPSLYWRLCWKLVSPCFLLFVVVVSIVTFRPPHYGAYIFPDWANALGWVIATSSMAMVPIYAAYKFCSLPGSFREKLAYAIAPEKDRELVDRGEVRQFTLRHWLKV
- assay remarks: Inhibition of [3H]dopamine uptake at human DAT expressed in HEK293 cells at 10 uM after 10 mins by scintillation counting
recorded endpoint: inhibition (%)

molecule | experimental system | recorded endpoint | test result
O=[N+]([O-])c1ccc(C(O)CCN2CC=C(Cc3ccccc3)CC2)cc1 (racemic) | Sodium-dependent dopamine transporter (Homo sapiens, UniProt Q01959) | inhibition | 55
OC(CCN1CC=C(Cc2ccccc2)CC1)c1cccs1 (racemic) | Sodium-dependent dopamine transporter (Homo sapiens, UniProt Q01959) | inhibition | 52
COc1ccc2cc([C@H](O)[C@H](C)N3CCC(O)(Cc4ccccc4)CC3)ccc2c1Cl (racemic) | Sodium-dependent dopamine transporter (Homo sapiens, UniProt Q01959) | inhibition | 22
OC(CCN1CCC(O)(Cc2ccccc2)CC1)c1csc2ccccc12 (racemic) | Sodium-dependent dopamine transporter (Homo sapiens, UniProt Q01959) | inhibition | 64
COc1ccc([C@H](O)[C@@H](C)N2CC=C(Cc3ccccc3)CC2)cc1 (racemic) | Sodium-dependent dopamine transporter (Homo sapiens, UniProt Q01959) | inhibition | 70

(A) COc1ccc([C@H](O)[C@H](C)N2CC=C(Cc3ccccc3)CC2)cc1 (racemic)
(B) Cc1ccc(C(O)CCN2CC=C(Cc3ccccc3)CC2)cc1 (racemic)
-- ask For the pair A and B , which member has the lower inhibition number? Use the label to indicate which entry you chose.
-- reply B

(1) C[C@H]([C@@H](O)c1ccc(Cl)c(Cl)c1)N1CC=C(Cc2ccccc2)CC1 (racemic)
(2) C[C@H]([C@@H](O)c1cccc(F)c1)N1CC=C(Cc2ccccc2)CC1 (racemic)
-- ask Of 1 and 2 , which carries the smaller reported inhibition figure? // caller expects the label of the chosen entry
-- reply 2
